Experiment: decrease of insulin promoter-GFP reporter – imaging, high-content screening, mouse beta cells (AID 1628)
Settings: MIN6 insulin promoter GFP reporter, at 5 µM, stronger effect = lower value
The campaign covered roughly 190,000 compounds. About 930 (0.49%) were called active. The list shows a part of the results. Results with a measured potency or affinity are listed apart.
I'd be grateful if you could share measured z-score for these entries.
Enter a number only.

Query: Read the entry O=C(O)CC12CSc3[nH]c(=O)sc3C1c1ccccc1OC2=O (stereo not drawn) and write its reported z-score.
Result: 3.25

Query: Read the entry CCc1ccc(NC(=O)c2cc(C(C)C)on2)cc1 and write its reported z-score.
Result: 3.36

Query: Read the entry Cc1cc(C(=O)CSc2nnnn2-c2ccccc2)c(C)n1CC1CCCO1 (stereo not drawn) and write its reported z-score.
Result: -1.4

Query: Read the entry O=C(NC1CCCC1)c1c[nH]c2ccc(F)cc2c1=O and write its reported z-score.
Result: -3.28

Query: Read the entry CCn1c(SCC(=O)Nc2cc(C)on2)nc2c(c1=O)SC(C)C2 (stereo not drawn) and write its reported z-score.
Result: -3.41

Query: Read the entry CCCCN1C(=O)/C(=C/C=C2\N(C)c3ccccc3C2(C)C)SC1=S and write its reported z-score.
Result: 10.9

Query: Read the entry c1ccc2c(c1)CCN(CCCNc1nc3ccccc3n3cnnc13)C2 and write its reported z-score.
Result: -3.05

Query: Read the entry CCOCCCNc1nc2c(C)cccn2c(=O)c1/C=C1\SC(=S)N(CC(C)C)C1=O and write its reported z-score.
Result: 4.38

Query: Read the entry CC(C)(C)c1nc2ccccc2c2nnc(SCC(=O)NCc3ccco3)n12 and write its reported z-score.
Result: 1.35

Query: Read the entry c1cncc(-c2nn[nH]n2)c1 and write its reported z-score.
Result: -1.32

Query: Read the entry N#Cc1c(NC(=O)CCCN2C(=O)c3ccccc3C2=O)oc(-c2ccccc2)c1-c1ccccc1 and write its reported z-score.
Result: -0.48

Query: Read the entry Cc1nc2ccccn2c1C(=O)NCc1ccc2c(c1)OCO2 and write its reported z-score.
Result: -5.57

Query: Read the entry C(=N\c1nc2ccccc2[nH]1)/c1cccs1 and write its reported z-score.
Result: -1.35

---

I'd be grateful if you could share measured z-score for these entries.
Test: decrease of insulin promoter-GFP reporter – imaging, high-content screening, mouse beta cells (AID 1628)
Details: MIN6 insulin promoter GFP reporter, at 5 µM, stronger effect = lower value
The campaign covered roughly 190,000 compounds. About 930 (0.49%) were called active. The list shows a part of the results. Entries with a potency or affinity are not part of this list.
Enter a number only.

Query: Read the entry CC(C)OC(=O)c1c2c(n3ccccc13)C(=O)c1ccccc1C2=O and write its reported z-score.
Result: 11.7

Query: Read the entry CC(=O)NC(c1ccc(Cl)cc1)c1c(O)ccc2ccc(O)cc12 (centres undefined) and write its reported z-score.
Result: 10.6

Query: Read the entry CCOc1ccc2[nH]c(=O)c(CN(Cc3cccs3)C(CC)c3nnnn3C(C)(C)CC)cc2c1 (centres undefined) and write its reported z-score.
Result: -3.01

Query: Read the entry FC(F)(F)c1cccc(N2CCN(Cc3cccnc3)CC2)c1 and write its reported z-score.
Result: -4.71

---

Assay: decrease of insulin promoter-GFP reporter – imaging, high-content screening, mouse beta cells (AID 1628)
Conditions: MIN6 insulin promoter GFP reporter, at 5 µM, stronger effect = lower value
Screen size: about 190,000 compounds; about 930 (0.49%) were called active. Some of the results follow. Entries with a potency or affinity are not part of this list.
Recorded Endpoint: z-score
Enter a number only.

Query: Read the entry Cc1ccccc1NCC(=O)N/N=C/c1c[nH]c2ccccc12 and write its reported z-score.
Result: 4.05

Query: Read the entry CC(=O)OC(C(=O)NCc1ccc(F)cc1)c1ccccn1 (stereo not drawn) and write its reported z-score.
Result: 3.91

Query: Read the entry COC(=O)CN(C(=O)CSc1nnc(-c2cccc(OC)c2)o1)c1ccc(OC)cc1 and write its reported z-score.
Result: -0.85

Query: Read the entry O=c1ccc(NS(=O)(=O)c2ccccc2)cn1Cc1ccc(Cl)c(Cl)c1 and write its reported z-score.
Result: 4.35

Query: Read the entry O=C(NCCc1ccc(Cl)cc1)c1cccs1 and write its reported z-score.
Result: 1.56

Query: Read the entry O=c1c([N+](=O)[O-])cccn1Cc1ccc(F)cc1Cl and write its reported z-score.
Result: 3.36

Query: Read the entry COc1ccc(NC(=O)C2CCN(Cc3cnn(-c4ccccc4)c3-n3cccc3)CC2)cc1OC and write its reported z-score.
Result: -4.57

Query: Read the entry COc1ccc(-c2nnc(SCC(=O)N(Cc3ccccc3)C(C)(C)C)o2)cc1OC and write its reported z-score.
Result: -5.96

Query: Read the entry Cc1cc(F)c(F)c(C(=O)N2CCOCC2)c1 and write its reported z-score.
Result: 1.59

Query: Read the entry CCCCn1nc2cc(C(=O)N(CC)c3ccc(OC)cc3)ccc2c1OCC and write its reported z-score.
Result: -3.8

Query: Read the entry CCOC(=O)Cc1csc(SCC(=O)Nc2cccc(C#N)c2)n1 and write its reported z-score.
Result: 1.27

Query: Read the entry CCN(CC)C(=O)C1CCN(Cc2cccc(OCc3ccccc3)c2)CC1 and write its reported z-score.
Result: -4.22

Query: Read the entry CNC(=S)Nc1ccc([N+](=O)[O-])cc1 and write its reported z-score.
Result: 4.22

Query: Read the entry COc1ccc(Cl)cc1NC(=O)C1(c2cccs2)CCOCC1 and write its reported z-score.
Result: 3.78

Query: Read the entry N#C/C(=C/c1ccc(N2CCOCC2)o1)c1ccc(Cl)cc1 and write its reported z-score.
Result: 7.33

Query: Read the entry O=C(O)CCCCCCCCCCCc1ccccc1 and write its reported z-score.
Result: 0.16

Query: Read the entry Cc1ccc(NS(=O)(=O)c2cc([N+](=O)[O-])ccc2N/N=C/c2sc(N3CCOCC3)nc2-c2ccccc2)c(C)c1 and write its reported z-score.
Result: 11

Query: Read the entry CC1=C(C(=O)OCc2ccccc2)C(c2ccccc2)NC(=O)N1CCCCCC(=O)O (stereo not drawn) and write its reported z-score.
Result: -5.52

Query: Read the entry CC(=O)C1=C(C)Nc2ncnn2C1c1ccc(Cl)cc1Cl (stereo not drawn) and write its reported z-score.
Result: 3.45

Query: Read the entry Cc1c(C(=O)N2CCOCC2)[nH]c2c1C(=O)CC(c1ccccc1Cl)C2 (stereo not drawn) and write its reported z-score.
Result: -3.07

Query: Read the entry O=C(NC1(C(F)(F)F)NC(=O)N(c2ccc(F)c(Cl)c2)C1=O)c1ccncc1 (stereo not drawn) and write its reported z-score.
Result: 4.5

Query: Read the entry CC(C)CCNC(=S)Nc1ccc([N+](=O)[O-])cc1 and write its reported z-score.
Result: -5.03

Query: Read the entry Cc1ccc(-c2noc(CSc3nnnn3-c3ccccc3)n2)cc1 and write its reported z-score.
Result: 2.35

Query: Read the entry CCN1/C(=C/C(C)=C/c2sc3ccccc3[n+]2CC)Sc2ccccc21 and write its reported z-score.
Result: -3.52

Query: Read the entry CCN(CC)c1ccc(/C=C/c2cc(-c3ccccc3)c3ccccc3n2)cc1 and write its reported z-score.
Result: 15.3

Query: Read the entry CCN1CC=C2C(C#N)=C(N)C(C#N)(C#N)C(c3cc(Cl)ccc3Cl)C2C1 (stereo not drawn) and write its reported z-score.
Result: 15.3

Query: Read the entry CCN1/C(=C/c2ccc3cc(C)ccc3[n+]2CC)Sc2ccccc21 and write its reported z-score.
Result: 16.5

Query: Read the entry CC(=O)N1CCc2cc(Br)cc(S(=O)(=O)CCC(=O)Nc3c(C)n(C)n(-c4ccccc4)c3=O)c21 and write its reported z-score.
Result: 2.32

Query: Read the entry CCN(CC)c1ccc2cc(S(=O)(=O)c3ccc(Cl)cc3)c(=O)oc2c1 and write its reported z-score.
Result: 6.96

Query: Read the entry CCN(CC)c1ccc(C=C(c2nnnn2-c2ccccc2)c2nnnn2-c2ccccc2)cc1 and write its reported z-score.
Result: 4.4

Query: Read the entry Cc1sc2ncn(CC(=O)NCCCC(=O)N3CCN(c4ncccn4)CC3)c(=O)c2c1C and write its reported z-score.
Result: -4.71

Query: Read the entry C=CCN1C(=O)/C(=C\c2ccc(OC(=O)c3ccco3)c(OC)c2)SC1=S and write its reported z-score.
Result: 1.03

Query: Read the entry N#C/C(=C/c1ccc(N2CCCCCC2)o1)c1ccc(Cl)cc1 and write its reported z-score.
Result: 16.2
